- protocol text: The drug is tested on Edwardsiella tarda strain: ATCC23685 for biotransformation. The drug concentrations were measured before and after a 12-h incubation by liquid-chromatography-coupled mass spectrometry (LC–MS)
- run conditions: 2 µM

{"compound": "O=C1NCC2(CCN(CCc3ccccc3)CC2)O1 [FENSPIRIDE]", "Bacterial Biotransformation": "Compound NOT metabolized"}
{"compound": "COCCc1ccc(OCC(O)CNC(C)C)cc1.COCCc1ccc(OCC(O)CNC(C)C)cc1.O=C(O)C(O)C(O)C(=O)O (centres undefined) [METOPROLOL TARTRATE]", "Bacterial Biotransformation": "Compound NOT metabolized"}
{"compound": "O=c1[nH]c2ccccc2n1C1CCN(CCCC(c2ccc(F)cc2)c2ccc(F)cc2)CC1 [PIMOZIDE]", "Bacterial Biotransformation": "Compound NOT metabolized"}

Data credit: ChEMBL document CHEMBL5303573
